# assay-info: Pharmacokinetic study of 15 LJF components in plasma of RSV-infected mice after oral LJF extract (UHPLC-QQQ MS)
# Type: in vivo
# run-parameters: mouse, in vivo, po, 12 g/kg
metric: Tmax
Note: state the figure and append the unit.

Form field Tmax, entry C=C[C@H]1[C@H](O[C@@H]2O[C@H](CO)[C@@H](O)[C@H](O)[C@H]2O)OC=C2C(=O)OCC[C@H]21 [Sweroside] : 2 h

====

# assay-info: Pharmacokinetic study of 15 LJF components in plasma of RSV-infected mice after oral LJF extract (UHPLC-QQQ MS)
# Assay type: in vivo
# run-parameters: mouse, plasma, po, 12 g/kg, RSV mice plasma, oral LJF extract 12.0 g/kg, n = 6; read-out: Cmax
Lab note: compare Cmax with 2000 ng/mL, writing t if less and f if equal or more.

These recorded examples may help you get a feel for the data.
{"compound": "C=C[C@H]1[C@H](O[C@@H]2O[C@H](CO)[C@@H](O)[C@H](O)[C@H]2O)OC=C2C(=O)OCC[C@]21O", "group-label": "f"}
{"compound": "O=C(C=Cc1ccc(O)c(O)c1)OC1CC(O)(C(=O)O)CC(O)C1OC(=O)C=Cc1ccc(O)c(O)c1 (stereo not shown)", "group-label": "t"}
{"compound": "C=C[C@H]1[C@H](O[C@@H]2O[C@H](CO)[C@@H](O)[C@H](O)[C@H]2O)OC=C2C(=O)OC(O)C[C@H]21 (stereo partly shown)", "group-label": "f"}

hey, is Cmax for `O=C(/C=C/c1ccc(O)c(O)c1)O[C@@H]1C[C@](O)(C(=O)O)C[C@@H](O)[C@H]1O` lower than 2000 ng/mL or not?
f

Cmax strictly < 2000 ng/mL for this compound? O=C(C=Cc1ccc(O)c(O)c1)OC1CC(O)(C(=O)O)CC(OC(=O)C=Cc2ccc(O)c(O)c2)C1O (stereo not shown)
t

Say whether its Cmax is strictly beneath 2000 ng/mL. Entry: `O=C(O)/C=C/c1ccc(O)c(O)c1`
t

Is the reported Cmax for `C=C[C@H]1[C@H](O[C@@H]2O[C@H](CO)[C@@H](O)[C@H](O)[C@H]2O)OC=C(C(=O)OC)[C@H]1CC(=O)O` strictly below 2000 ng/mL?
f
